Molecular target: human TPO receptor (hTPOR) (Homo sapiens, UniProt P40238)
Construct: expressed in transfected cells; host or cells: BaF-B03 (murine IL-3 dependent cell line)
Sequence (P40238 26-635): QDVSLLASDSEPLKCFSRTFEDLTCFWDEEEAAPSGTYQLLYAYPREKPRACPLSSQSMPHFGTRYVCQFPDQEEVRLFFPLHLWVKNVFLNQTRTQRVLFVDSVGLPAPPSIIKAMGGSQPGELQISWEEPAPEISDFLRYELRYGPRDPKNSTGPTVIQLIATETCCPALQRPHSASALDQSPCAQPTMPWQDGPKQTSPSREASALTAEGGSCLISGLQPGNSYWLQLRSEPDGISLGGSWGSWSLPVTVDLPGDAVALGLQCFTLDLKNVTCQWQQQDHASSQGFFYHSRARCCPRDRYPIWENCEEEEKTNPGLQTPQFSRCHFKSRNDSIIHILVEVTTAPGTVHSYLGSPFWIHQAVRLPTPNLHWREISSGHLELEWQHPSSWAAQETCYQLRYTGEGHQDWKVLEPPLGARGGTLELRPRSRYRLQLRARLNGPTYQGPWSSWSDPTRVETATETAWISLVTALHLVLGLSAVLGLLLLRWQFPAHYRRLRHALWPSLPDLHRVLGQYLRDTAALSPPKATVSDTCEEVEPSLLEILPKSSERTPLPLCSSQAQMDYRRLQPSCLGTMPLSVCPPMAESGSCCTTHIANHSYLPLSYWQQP
Assay: Thrombopoietic activity: proliferation of TPO dependent BaF/hTPOR cells (WST-1, absorbance at 450 nm)
Type: cell-based
Details: 20 h + 4 h WST-1, ED50 = half concentration of the concentration showing the maximum thrombopoietic activity, Table 1
ENDPOINT: pEC50
Conceptually, pEC50 converts a concentration in mol/L into minus its log10.

| MOLECULE | pEC50 |
| --- | --- |
| CCCCCCCCCCC(OC)c1cccc(-c2csc(NC(=O)c3cc(Cl)c(C=C(C)C(=O)O)c(Cl)c3)n2)c1F (centres unmarked) | 8.99 |
| C/C(=C\c1c(Cl)cc(C(=O)Nc2nc3c(s2)COc2c(CCC(C)(C)C)cccc2-3)cc1Cl)C(=O)O | 7.82 |
| CCCCCCOCCc1cccc(-c2csc(NC(=O)c3cc(Cl)c(/C=C(\C)C(=O)O)c(Cl)c3)n2)c1OC | 7.90 |

Supply measured pEC50 of CCCCCOCc1cccc(-c2csc(NC(=O)c3cc(Cl)c(C=C(C)C(=O)O)c(Cl)c3)n2)c1F in your reply.
8.51

Supply measured pEC50 of CCCCCOCc1cccc(-c2csc(NC(=O)c3cc(F)c(/C=C(\C)C(=O)O)c(F)c3)n2)c1OC in your reply.
7.77

Supply measured pEC50 of CCCCCCCOc1cccc(-c2csc(NC(=O)c3cc(F)c(/C=C(\C)C(=O)O)c(F)c3)n2)c1OC in your reply.
8.08

Supply measured pEC50 of CCCCCCOCc1cccc(-c2csc(NC(=O)c3cc(Cl)c(/C=C(\C)C(=O)O)c(Cl)c3)n2)c1OC in your reply.
7.86

Supply measured pEC50 of CCCCOCc1cccc(-c2csc(NC(=O)c3cc(F)c(/C=C(\C)C(=O)O)c(F)c3)n2)c1OC in your reply.
7.81

Supply measured pEC50 of COc1c(COCCCC(C)C)cccc1-c1csc(NC(=O)c2cc(F)c(/C=C(\C)C(=O)O)c(F)c2)n1 in your reply.
7.90

Supply measured pEC50 of COC(CCC(C)C)c1cccc(-c2csc(NC(=O)c3cc(F)c(C=C(C)C(=O)O)c(F)c3)n2)c1F (centres unmarked) in your reply.
9.09

Supply measured pEC50 of CCOC(c1cccc(-c2csc(NC(=O)c3cc(F)c(C=C(C)C(=O)O)c(F)c3)n2)c1F)C(C)(C)C (centres unmarked) in your reply.
8.72

Origin of the recorded values: patent US7601746B2
